Experiment: Apparent permeability from apical to basolateral side in human Caco2 cells at 10 uM after 90 mins by LC-MS/MS analysis
Assay type: ADME, cell-based, Caco-2
Details: Caco-2
metric: Papp A→B at 1.5 h, 10 µM (×10⁻⁶ cm/s)
# value in ×10⁻⁶ cm/s; strip the unit string

Q: Consider the compound shown here: `CC(=O)O[C@H]1C(=O)[C@@]2(C)[C@H]([C@H](OC(=O)c3ccccc3)[C@]34OC(=O)O[C@H]3[C@H](OC(=O)[C@H](O)[C@H](CC(C)C)NC(=O)OC(C)(C)C)C(C)=C1C4(C)C)[C@]1(OC(C)=O)CO[C@@H]1C[C@@H]2O` What is its recorded Papp A→B at 1.5 h, 10 µM?
A: 2.8

Q: Try this compound next: `COC(=O)O[C@H]1C(=O)[C@]2(C)[C@@H](OC)C[C@H]3OC[C@@]3(OC(C)=O)[C@H]2[C@H](OC(=O)c2ccccc2)[C@]2(O)C[C@H](OC(=O)[C@H](O)[C@H](CC(C)C)NC(=O)OC(C)(C)C)C(C)=C1C2(C)C`
A: 8.87

Q: Now consider `CO[C@H]1C(=O)[C@]2(C)[C@@H](OC)C[C@H]3OC[C@@]3(OC(C)=O)[C@H]2[C@H](OC(=O)c2ccccc2)[C@]23OC(=O)O[C@H]2[C@H](OC(=O)[C@H](O)[C@@H](NC(=O)OC(C)(C)C)c2ccccn2)C(C)=C1C3(C)C` .
A: 3.66

Q: Now this one: `CO[C@H]1C[C@H]2OC[C@@]2(OC(C)=O)[C@H]2[C@H](OC(=O)c3ccccc3)[C@]3(O)C[C@H](OC(=O)[C@H](O)[C@@H](NC(=O)OC(C)(C)C)c4ccccn4)C(C)=C([C@@H](OC(=O)N(C)C)C(=O)[C@]12C)C3(C)C`
A: 3.02

Q: Next compound: `COC(=O)O[C@H]1C[C@H]2OC[C@@]2(OC(C)=O)[C@H]2[C@H](OC(=O)c3ccccc3)[C@]3(O)C[C@H](OC(=O)[C@H](O)[C@H](CC(C)C)NC(=O)OC(C)(C)C)C(C)=C([C@@H](OC)C(=O)[C@]12C)C3(C)C`
A: 7.16

Q: Try this compound next: `COC(=O)O[C@H]1C(=O)[C@]2(C)[C@@H](OC)C[C@H]3OC[C@@]3(OC(C)=O)[C@H]2[C@H](OC(=O)c2ccccc2)[C@]2(O)C[C@H](OC(=O)[C@H](O)[C@@H](NC(=O)OC(C)(C)C)c3ccccc3)C(C)=C1C2(C)C`
A: 6.91

Q: Similarly, `COC(=O)O[C@H]1C[C@H]2OC[C@@]2(OC(C)=O)[C@H]2[C@H](OC(=O)c3ccccc3)[C@]3(O)C[C@H](OC(=O)[C@H](O)[C@@H](NC(=O)c4ccccc4)c4ccccc4)C(C)=C([C@@H](OC)C(=O)[C@]12C)C3(C)C` ?
A: 3.32

Q: Ok, now `CO[C@H]1C(=O)[C@@]2(C)[C@H]([C@H](OC(=O)c3ccccc3)[C@]34OC(=O)O[C@H]3[C@H](OC(=O)[C@H](O)[C@@H](NC(=O)OC(C)(C)C)c3ccccc3)C(C)=C1C4(C)C)[C@]1(OC(C)=O)CO[C@@H]1C[C@@H]2O`
A: 0.88

Q: Also need `CO[C@H]1C(=O)[C@]2(C)[C@@H](OC)C[C@H]3OC[C@@]3(OC(C)=O)[C@H]2[C@H](OC(=O)c2ccccc2)[C@]23OC(=O)O[C@H]2[C@H](OC(=O)[C@H](O)[C@@H](NC(=O)OC(C)(C)C)c2ccccc2)C(C)=C1C3(C)C` , thanks.
A: 2.83

Q: Another: `CO[C@H]1C[C@H]2OC[C@@]2(OC(C)=O)[C@H]2[C@H](OC(=O)c3ccccc3)[C@]3(O)C[C@H](OC(=O)[C@H](O)[C@@H](NC(=O)OC(C)(C)C)c4ccccc4)C(C)=C([C@@H](OC(=O)N(C)C)C(=O)[C@]12C)C3(C)C`
A: 8.11

Q: Likewise for `CO[C@H]1C[C@H]2OC[C@@]2(OC(C)=O)[C@H]2[C@H](OC(=O)c3ccccc3)[C@]3(O)C[C@H](OC(=O)[C@H](O)[C@H](CC(C)C)NC(=O)OC(C)(C)C)C(C)=C([C@@H](OC(=O)N(C)C)C(=O)[C@]12C)C3(C)C` ?
A: 8.17

Q: # iterate: `COC(=O)O[C@H]1C(=O)[C@]2(C)[C@@H](OC)C[C@H]3OC[C@@]3(OC(C)=O)[C@H]2[C@H](OC(=O)c2ccccc2)[C@]2(O)C[C@H](OC(=O)[C@H](O)[C@@H](NC(=O)c3ccccc3)c3ccccc3)C(C)=C1C2(C)C`
A: 4.38

Q: Follow-up item: `CO[C@H]1C(=O)[C@]2(C)[C@@H](OC(=O)N(C)C)C[C@H]3OC[C@@]3(OC(C)=O)[C@H]2[C@H](OC(=O)c2ccccc2)[C@]23OC(=O)O[C@H]2[C@H](OC(=O)[C@H](O)[C@@H](NC(=O)OC(C)(C)C)c2ccccn2)C(C)=C1C3(C)C`
A: 2.46

// data source = ChEMBL document CHEMBL3098054
